METHOD NOTES: Phase 1 multiple-dose study, plasma PK
Assay type: in vivo, human
COND: both sexes, human, plasma, oral, 12 mg, Day 9; Cohort 3 (12 mg BID); read-out: Plasma T1/2, mean (SD) (converted)
ENDPOINT: half-life (h)
The response must be a number in h with no trailing unit.

Q. Reported half-life for C[C@H]1CN2CCNCc3ccc(C(=O)NCC(F)F)c1c32 : what is it?
A. 4.58

---

METHOD NOTES: Phase 1 multiple-dose study, plasma PK
Type: in vivo, human
COND: both sexes, human, plasma, oral, 12 mg, Day 10; Cohort 2 (12 mg TID); read-out: Plasma Tmax, median (minimum, maximum)
ENDPOINT: Tmax
# do not omit the unit; it follows the number

Q. Reported Tmax for C[C@H]1CN2CCNCc3ccc(C(=O)NCC(F)F)c1c32 : what is it?
A. 1.02 h
